These measurements were taken from the supplement of paper PMC13207355.

test system: E31 (patient-derived glioblastoma stem cells of proneural subtype); experiment: phenotypic distance (Euclidean, principal components) from DMSO controls (arbitrary units); higher = stronger morphological change; conditions: 1000 nM; exposure time: 72 h;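 note: cell Painting imaging in 384-well plates, CellProfiler features reduced to at least 20 principal components, Euclidean distance versus same-plate DMSO vehicle wells (0.1% v/v), median over six images per well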
Structures can show the parent of a compound that is named as a salt.
# label = yes (1) if phenotypic distance >= 3 else no (0)

{"columns": ["MOLECULE", "GROUP"],
 "data": [
  ["COc1ccc2c(c1)CC[C@@H]1[C@@H]2CC[C@]2(C)[C@@H](NCCCCCCN3C(=O)CCC3=O)CC[C@@H]12", "no (0)"],
  ["C#C[C@]1(O)CC[C@H]2[C@@H]3CCC4=CCCC[C@@H]4[C@H]3CC[C@@]21C [Lynestrenol]", "no (0)"],
  ["Cc1ncc(CO)c(CO)c1O [Pyridoxine hydrochloride]", "no (0)"],
  ["C[C@@H](Oc1cc(-c2cnn(C3CCNCC3)c2)cnc1N)c1c(Cl)ccc(F)c1Cl [Crizotinib]", "no (0)"],
  ["O=C1CC[C@@H](C(=O)N2CSC[C@H]2C(=O)O)N1 [Pidotimod]", "no (0)"]
]}

-- ask Could you please find out whether Oc1c(Cl)cc(Cl)c(Cl)c1Cc1c(O)c(Cl)cc(Cl)c1Cl [Hexachlorophene] has phenotypic distance that meets 3 or exceeds it?
-- reply no (0)

-- ask Could you please find out whether CN(C(=O)CN(CCO)CC(=O)N(C)C(C)(C)Cc1ccccc1)C(C)(C)Cc1ccccc1 [Oxethazaine] has phenotypic distance that meets 3 or exceeds it?
-- reply no (0)

-- ask Could you please find out whether CC(C)C[C@H](NC(=O)[C@H](Cc1ccccc1)NC(=O)c1cnccn1)B(O)O [Bortezomib] has phenotypic distance that meets 3 or exceeds it?
-- reply yes (1)

-- ask Could you please find out whether C=CC(=O)Nc1cccc(Oc2nc(Nc3ccc(N4CCN(C)CC4)cc3)nc3ccsc23)c1 [Olmutinib] has phenotypic distance that meets 3 or exceeds it?
-- reply no (0)

-- ask Could you please find out whether CC(C)(C)C1CCN(C(=O)n2ncc(C(O)(c3ccccc3)c3ccccc3)n2)CC1 [ML211] has phenotypic distance that meets 3 or exceeds it?
-- reply no (0)

-- ask Could you please find out whether O=C(Nc1ccc([N+](=O)[O-])cc1Cl)c1cc(Cl)ccc1O [Niclosamide] has phenotypic distance that meets 3 or exceeds it?
-- reply yes (1)

-- ask Could you please find out whether CC(=O)CC(c1ccc([N+](=O)[O-])cc1)c1c(O)c2ccccc2oc1=O (stereo unspecified) [Acenocoumarol] has phenotypic distance that meets 3 or exceeds it?
-- reply no (0)

-- ask Could you please find out whether CC(C)C[C@H](NC(=O)CNC(=O)c1cc(Cl)ccc1Cl)B1OC(=O)C(CC(=O)O)(CC(=O)O)O1 [MLN9708] has phenotypic distance that meets 3 or exceeds it?
-- reply yes (1)

-- ask Could you please find out whether CC(C)C[C@H](NC(=O)CNC(=O)c1cc(Cl)ccc1Cl)B(O)O [Ixazomib] has phenotypic distance that meets 3 or exceeds it?
-- reply yes (1)

-- ask Could you please find out whether CC1(C(=O)O)C2CCC(O2)C1(C)C(=O)O (stereo unspecified) [Cantharidic Acid] has phenotypic distance that meets 3 or exceeds it?
-- reply no (0)

-- ask Could you please find out whether CCCSc1ccc2[nH]c(NC(=O)OC)nc2c1 [Albendazole] has phenotypic distance that meets 3 or exceeds it?
-- reply yes (1)

-- ask Could you please find out whether COc1cc(N)c(Cl)cc1C(=O)NC1CCN(CCCOc2ccc(F)cc2)CC1OC (stereo unspecified) [Cisapride] has phenotypic distance that meets 3 or exceeds it?
-- reply no (0)

-- ask Could you please find out whether COc1cc2c(cc1O)CC[C@@H]1[C@@H]2CC[C@]2(C)[C@@H](O)CC[C@@H]12 [2-methoxyestradiol] has phenotypic distance that meets 3 or exceeds it?
-- reply no (0)

-- ask Could you please find out whether CNCCCC12CCC(c3ccccc31)c1ccccc12 [Maprotiline hydrochloride] has phenotypic distance that meets 3 or exceeds it?
-- reply no (0)

-- ask Could you please find out whether "CC[n+]1c(/C=C/C=C2/N(C)c3ccccc3C2(C)C)sc2ccccc21" has phenotypic distance that meets 3 or exceeds it?
-- reply yes (1)

-- ask Could you please find out whether CC(=O)[C@]1(O)Cc2c(O)c3c(c(O)c2[C@@H](O[C@H]2C[C@H](N)[C@H](O)[C@H](C)O2)C1)C(=O)c1ccccc1C3=O [Idarubicin] has phenotypic distance that meets 3 or exceeds it?
-- reply yes (1)
